System: SK-N-AS
Assay: Growth inhibition of human SK-N-AS cells at 1 uM after 24 hrs by MTT assay relative to control
Format: functional
Conditions: read-out: GI
# inhibition of growth at 1 µM values compiled below
The answer consists of two parts: a number and, after it, its unit.

Look over these answered cases.
| Compound | inhibition of growth at 1 µM |
| --- | --- |
| CC1=C(/C=C/C(C)=C/C=C/C(C)=C/C(=O)Nc2ccc(O)cc2)C(C)(C)CCC1 [FENRETINIDE] | 2% |
| CCCCCCCCCCNc1ccc(O)cc1 | 44% |
| CCCCCCCCCCCCNc1ccc(O)cc1 | 82% |

// next item, inhibition of growth at 1 µM requested
**Q:** # assay system SK-N-AS: give inhibition of growth at 1 µM of CC1=C(/C=C/C(C)=C/C=C/C(C)=C/C(=O)O)C(C)(C)CCC1 [TRETINOIN]
**A:** 0%
